Parameter Kd: see the listing below.
System: EIC domain of EI (Escherichia coli, UniProt P08839)
Construct: made in house
Assay Explanation: CSP-based NMR titration experiments (equilibrium dissociation constant)
Assay type: binding, E. coli
Reported Conditions: 15N-labeled EIC 400 µM, small molecule 0-8 mM, 37 °C, pH 7.4; read-out: KD
Value Type: Kd (mM)

- Compound: "Cc1nn(Cc2ccc(F)cc2)c(C)c1N"
  System: "EIC domain of EI (Escherichia coli, UniProt P08839)"
  Unit Abbreviation: "mM"
  Result Value: 3.2
- Compound: "CNCc1[nH]c2ccccc2c1C"
  System: "EIC domain of EI (Escherichia coli, UniProt P08839)"
  Unit Abbreviation: "mM"
  Result Value: 2.6
- Compound: "NCc1ccc(Br)s1"
  System: "EIC domain of EI (Escherichia coli, UniProt P08839)"
  Unit Abbreviation: "mM"
  Result Value: 2.9
- Compound: "CC(CN)Nc1ccc([N+](=O)[O-])cc1 (stereo not drawn)"
  System: "EIC domain of EI (Escherichia coli, UniProt P08839)"
  Unit Abbreviation: "mM"
  Result Value: 4.1
- Compound: "CC(C)Oc1ccc(Cl)cc1CN"
  System: "EIC domain of EI (Escherichia coli, UniProt P08839)"
  Unit Abbreviation: "mM"
  Result Value: 4.3
- Compound: "NCc1ccc(-c2ccc(F)cc2)o1"
  System: "EIC domain of EI (Escherichia coli, UniProt P08839)"
  Unit Abbreviation: "mM"
  Result Value: 2.5

----------
System: EIC domain of EI (Escherichia coli)
Construct: made in house
Assay Explanation: CSP-based NMR titration experiments (equilibrium dissociation constant)
Assay type: binding, E. coli
Reported Conditions: EIC, residues in the allosteric binding pocket fitted separately; read-out: KD, CSP titration data fitted for the residues in the allosteric binding pocket
Value Type: Kd (mM)

- Smiles Code: "Cc1nn(Cc2ccc(F)cc2)c(C)c1N"
  Value Type: "Kd"
  Unit Abbreviation: "mM"
  Result Value: 3.2
